Target: human Claudin18.2 (human)
Assay: cell-based or functional assay
measured-property: ADCC EC50 (µg/mL)
Report only the number, with the unit µg/mL understood.

In the examples that follow, each entry is paired with its recorded ADCC EC50.
• chimeric 207F8G5 (antibody, human IgG1, kappa, V domains shown, chimeric, human IgG1/kappa constant regions; also called 207F8G5-Chimeric) VH: QAYLQQSGAELVRSGASVKMSCKASGFTFTSYNIHWVKQTPGQGLEWIGYISPGNGGSNYNLKFKDKATLTSATSSSTAYMQISSLTSEDSAVYFCATGRGFAYWGQGTLVTVSA VL: DIVMTQSPSSLTVTPGEKVTMSCKSSQSLFNSGNQKNYLIWYQQKPGQPPKLLIYRASTRDSGVPDRFTGSGSGTDFTLTISNVQAEDLAIYYCQNDYSYPLTFGAGTKLELKR = 0.0214
• chimeric 265E6G2 (antibody, human IgG1, kappa, V domains shown, chimeric, human IgG1/kappa constant regions) VH: QAYLQQSGAELVRSGASVKMSCKASGYTFTSYNMHWVKQTPGQGLEWIGYIYPGNGGTNYNQKFKGKATLTADTSSSTAYMQISSLTSEDSAVYFCARDYYGNSFAYWGQGTLVTVSA VL: DLVMTQSPSSLTVTAGEKVTMSCKSSQSLLNSGNQKNYLTWYQQKPGQPPKLLIYWASTRESGVPDRFTGSGSGTDFTLTISNIQAEDLAVYYCQNDYSYPLPFGAGTKLELRR = 0.0321

Give the measured ADCC EC50 of chimeric 393C2C5 (antibody, human IgG1, kappa, V domains shown, chimeric, human IgG1/kappa constant regions; also called 393C2C5A) VH: DVQLVESGGGLVQPGGSRKLSCAASGFTFSSFGMHWVRQAPEKGLEWVAYISSGSSPIYYADTVKGRFTISRDNPKNTLFLQMTSLRSEDTAMYFCATFYYGNSFAYWGQGTLVTVSA VL: DIVMTQSPSSLTVTAGEKVTMSCKSSQTLLNSGNQKNYLTWYQQKSGQPPKLLIYWASTRESGVPDRFTGSGSGTDFTLTISSVQAEDLAVYYCQNAYSYPVTFGSGTKVELKR .
0.0111
